This collection of values is drawn from BigSolDB 2.1.

- RUN_CONDITIONS: in methanol, 293.25 K
ASSAY_READOUT: solubility (mole fraction)
Please give only the number in your answer, with no unit.

IN: Find the measured solubility (mole fraction) of O=C([O-])c1ccccc1.[K+] and report it.
OUT: 0.0153

====

- RUN_CONDITIONS: in isobutanol, 293.25 K
ASSAY_READOUT: solubility (mole fraction)
Number only, no unit.

IN: Provide solubility (mole fraction) value for the following compound: O=C([O-])c1ccccc1.[K+]
OUT: 0.000325

====

- RUN_CONDITIONS: in formamide, 293.25 K
ASSAY_READOUT: solubility (mole fraction)
Output spec: single numeric token, no unit.

IN: State its solubility (mole fraction): O=C([O-])c1ccccc1.[K+]
OUT: 0.045

====

- RUN_CONDITIONS: in n-propanol, 312.85 K
ASSAY_READOUT: solubility (mole fraction)
Provide a numeric answer; units are not to be included.

IN: Indicate the recorded solubility (mole fraction) value for this compound: O=C([O-])c1ccccc1.[K+]
OUT: 0.00115

====

- RUN_CONDITIONS: in n-butanol, 298.25 K
ASSAY_READOUT: solubility (mole fraction)
// return a plain number; no unit text

IN: Answer with reported solubility (mole fraction) of O=C([O-])c1ccccc1.[K+]
OUT: 0.000673

====

- RUN_CONDITIONS: in methanol, 287.95 K
ASSAY_READOUT: solubility (mole fraction)
Lab note: write the figure by itself, no unit.

IN: Tell me measured solubility (mole fraction) for O=C([O-])c1ccccc1.[K+] please.
OUT: 0.0148

====

- RUN_CONDITIONS: in DMAc, 312.85 K
ASSAY_READOUT: solubility (mole fraction)
Please state the value as a number alone, without comment.

IN: Using the record for O=C([O-])c1ccccc1.[K+] , state its measured solubility (mole fraction).
OUT: 0.000392

====

- RUN_CONDITIONS: in n-butanol, 317.95 K
ASSAY_READOUT: solubility (mole fraction)
API note: the answer field is a bare number with no unit suffix.

IN: Annotate the compound O=C([O-])c1ccccc1.[K+] with its measured solubility (mole fraction).
OUT: 0.000983

====

- RUN_CONDITIONS: in n-butanol, 287.95 K
ASSAY_READOUT: solubility (mole fraction)

IN: Output measured solubility (mole fraction) for this item: O=C([O-])c1ccccc1.[K+]
OUT: 0.000617

====

- RUN_CONDITIONS: in isopropanol, 298.25 K
ASSAY_READOUT: solubility (mole fraction)

IN: Using the record for O=C([O-])c1ccccc1.[K+] , state its measured solubility (mole fraction).
OUT: 0.000314

====

- RUN_CONDITIONS: in n-pentanol, 312.85 K
ASSAY_READOUT: solubility (mole fraction)

IN: Give the measured solubility (mole fraction) for O=C([O-])c1ccccc1.[K+]
OUT: 0.000986

====

- RUN_CONDITIONS: in DMF, 293.25 K
ASSAY_READOUT: solubility (mole fraction)
Field format: numeric only.

IN: Recall and state the measured solubility (mole fraction) for O=C([O-])c1ccccc1.[K+] .
OUT: 0.000426

====

- RUN_CONDITIONS: in DMAc, 282.95 K
ASSAY_READOUT: solubility (mole fraction)
Note: the reply should be a number with no unit written.

IN: Report measured solubility (mole fraction); entry is O=C([O-])c1ccccc1.[K+]
OUT: 0.000243
